Form field: Activity (one value per entry).
Test system: Avian myeloblastosis virus
Assay: Inhibition of AMV reverse transcriptase activity assessed as incorporation of dGMP in poly(rC)-oligo(dG) at 10 uM
Set-up: scale not given: the % may be the effect or the level left
API: value field is a number in %; no unit string.

// worked examples, Activity included
[
  {
    "smiles_code": "O=C(OC[C@H]1O[C@@H](OC(=O)c2cc(O)c(O)c(O)c2)[C@H](OC(=O)c2cc(O)c(O)c(O)c2)[C@@H](OC(=O)c2cc(O)c(O)c(O)c2)[C@@H]1OC(=O)c1cc(O)c(O)c(O)c1)c1cc(O)c(O)c(O)c1",
    "unit_descriptor": "%",
    "Activity": 44
  },
  {
    "smiles_code": "O=C1OC[C@H]2O[C@@H](O)[C@H](O)[C@@H](O)[C@@H]2OC(=O)c2cc(O)c(O)c(O)c2-c2c(O)c(O)c3oc(=O)c4c(c(O)c(O)c5oc(=O)c2c3c54)-c2c1cc(O)c(O)c2O",
    "unit_descriptor": "%",
    "Activity": 64
  },
  {
    "smiles_code": "O=C(O)C[C@H]1C(=O)O[C@H]2[C@H](OC(=O)c3cc(O)c(O)c(O)c3)[C@@H](OC(=O)c3cc(O)c(O)c4c3[C@H]1[C@H](O)C(=O)O4)[C@H](OC(=O)c1cc(O)c(O)c(O)c1)O[C@@H]2COC(=O)c1cc(O)c(O)c(O)c1",
    "unit_descriptor": "%",
    "Activity": 46
  },
  {
    "smiles_code": "Oc1cc(O)c2c(c1)O[C@H](c1ccc(O)c(O)c1)[C@H](O)[C@H]2c1c(O)cc(O)c2c1O[C@H](c1ccc(O)c(O)c1)[C@H](O)C2",
    "unit_descriptor": "%",
    "Activity": 80
  },
  {
    "smiles_code": "O=C(O)c1cc(O)c(O)c(O)c1",
    "unit_descriptor": "%",
    "Activity": 99
  }
]

Specify measured Activity for O=C1O[C@H]2[C@@H]3OC(=O)c4cc(O)c(O)c(O)c4-c4c(cc(O)c(O)c4O)C(=O)OC[C@H]2O[C@@H](OC(=O)c2cc(O)c(O)c(O)c2)[C@@H]3OC(=O)c2cc(O)c(O)c3c2[C@@H]2C1=CC(=O)[C@](O)(O3)C2(O)O .
62

Specify measured Activity for O=C(O[C@@H]1O[C@@H]2COC(=O)c3cc(O)c(O)c(O)c3-c3c(cc(O)c(O)c3O)C(=O)O[C@H]2[C@H](OC(=O)c2cc(O)c(O)c(O)c2)[C@H]1OC(=O)c1cc(O)c(O)c(O)c1)c1cc(O)c(O)c(Oc2c(C(=O)O[C@H]3O[C@@H]4COC(=O)c5cc(O)c(O)c(O)c5-c5c(cc(O)c(O)c5O)C(=O)O[C@H]4[C@H](OC(=O)c4cc(O)c(O)c(O)c4)[C@H]3OC(=O)c3cc(O)c(O)c(O)c3)cc(O)c(O)c2O)c1 .
13

----------
Test system: Avian myeloblastosis virus
Experiment: Inhibition of AMV reverse transcriptase activity assessed as incorporation of dGMP in poly(rC)-oligo(dG) at 100 uM
Design: scale not given: the % may be the effect or the level left
Form field: Activity (one value per entry).
API: value field is a number in %; no unit string.

[
  {
    "smiles_code": "O=C1O[C@H]2[C@@H]3OC(=O)c4cc(O)c(O)c(O)c4-c4c(cc(O)c(O)c4O)C(=O)OC[C@H]2O[C@@H](OC(=O)c2cc(O)c(O)c(O)c2)[C@@H]3OC(=O)c2cc(O)c(O)c3c2[C@@H]2C1=CC(=O)[C@](O)(O3)C2(O)O",
    "Activity (%)": 15
  }
]

Turning now to a further record.
Specify measured Activity for O=C(O[C@@H]1O[C@@H]2COC(=O)c3cc(O)c(O)c(O)c3-c3c(cc(O)c(O)c3O)C(=O)O[C@H]2[C@H](OC(=O)c2cc(O)c(O)c(O)c2)[C@H]1OC(=O)c1cc(O)c(O)c(O)c1)c1cc(O)c(O)c(Oc2c(C(=O)O[C@H]3O[C@@H]4COC(=O)c5cc(O)c(O)c(O)c5-c5c(cc(O)c(O)c5O)C(=O)O[C@H]4[C@H](OC(=O)c4cc(O)c(O)c(O)c4)[C@H]3OC(=O)c3cc(O)c(O)c(O)c3)cc(O)c(O)c2O)c1 .
8

----------
Form field: Activity (one value per entry).
Tested on: Avian myeloblastosis virus
Assay: Inhibition of AMV reverse transcriptase activity assessed as incorporation of dGMP in poly(rC)-oligo(dG) at 1 uM
Parameters: scale not given: the % may be the effect or the level left
API: value field is a number in %; no unit string.

[
  {
    "smiles_code": "O=C(O)c1cc(O)c(O)c(O)c1",
    "assay_result": 103
  }
]

Give measured Activity for Oc1cc(O)c2c(c1)O[C@H](c1ccc(O)c(O)c1)[C@H](O)[C@H]2c1c(O)cc(O)c2c1O[C@H](c1ccc(O)c(O)c1)[C@H](O)C2 (Avian myeloblastosis virus).
93

Give measured Activity for O=C(O)C[C@@H]1C(=O)O[C@H]2[C@@H]3OC(=O)c4cc(O)c(O)c(O)c4-c4c(cc(O)c(O)c4O)C(=O)OC[C@H]2O[C@@H](OC(=O)c2cc(O)c(O)c(O)c2)[C@@H]3OC(=O)c2cc(O)c(O)c3c2[C@H]1[C@H](O)C(=O)O3 (Avian myeloblastosis virus).
67

Give measured Activity for O=C(O[C@@H]1O[C@@H]2COC(=O)c3cc(O)c(O)c(O)c3-c3c(cc(O)c(O)c3O)C(=O)O[C@H]2[C@H](OC(=O)c2cc(O)c(O)c(O)c2)[C@H]1OC(=O)c1cc(O)c(O)c(O)c1)c1cc(O)c(O)c(Oc2c(C(=O)O[C@H]3O[C@@H]4COC(=O)c5cc(O)c(O)c(O)c5-c5c(cc(O)c(O)c5O)C(=O)O[C@H]4[C@H](OC(=O)c4cc(O)c(O)c(O)c4)[C@H]3OC(=O)c3cc(O)c(O)c(O)c3)cc(O)c(O)c2O)c1 (Avian myeloblastosis virus).
68

----------
System: Avian myeloblastosis virus
Assay: Inhibition of AMV reverse transcriptase activity assessed as incorporation of dTMP in poly(rA)-oligo(dT) at 10 uM
Design: scale not given: the % may be the effect or the level left
Form field: Activity (one value per entry).
API: value field is a number in %; no unit string.

[
  {
    "molecule": "O=C(O[C@@H]1O[C@@H]2COC(=O)c3cc(Oc4c(C(=O)O[C@@H]5O[C@@H]6COC(=O)c7cc(O)c(O)c(O)c7-c7c(cc(O)c(O)c7O)C(=O)O[C@H]6[C@H](OC(=O)c6cc(O)c(O)c(O)c6)[C@H]5OC(=O)c5cc(O)c(O)c(O)c5)cc(O)c(O)c4O)c(O)c(O)c3-c3c(cc(O)c(O)c3O)C(=O)O[C@H]2[C@H](OC(=O)c2cc(O)c(O)c(O)c2)[C@H]1OC(=O)c1cc(O)c(O)c(O)c1)c1cc(O)c(O)c(O)c1",
    "Activity, %": 7
  },
  {
    "molecule": "O=C[C@@H]1OC(=O)c2c3c(O)c(O)c(O)c2-c2c(cc(O)c(O)c2O)C(=O)O[C@H]1[C@@H]1OC(=O)c2c(c(O)c(O)c(O)c2-c2c(cc(O)c(O)c2O)C(=O)O[C@H]1COC(=O)c1cc(O)c(O)c(O)c1)O[C@H]1[C@@H]2OC(=O)c4cc(O)c(O)c(O)c4-c4c(cc(O)c(O)c4O)C(=O)O[C@H]2[C@H](OC(=O)c2cc(O)c(O)c(O)c2)O[C@@H]1CO3",
    "Activity, %": 4
  },
  {
    "molecule": "O=C1OC[C@H]2OC(O)[C@@H]3OC(=O)c4cc(O)c(O)c(O)c4-c4c(cc(O)c(O)c4O)C(=O)O[C@H]3[C@@H]2OC(=O)c2cc(O)c(O)c(O)c2-c2c1cc(O)c(O)c2O (stereo partly specified)",
    "Activity, %": 15
  },
  {
    "molecule": "COc1cc2c[n+](C)c3c4cc5c(cc4ccc3c2cc1OC)OCO5",
    "Activity, %": 11
  },
  {
    "molecule": "O=C(O)C[C@@H]1C(=O)O[C@H]2[C@@H]3OC(=O)c4cc(O)c(O)c(O)c4-c4c(cc(O)c(O)c4O)C(=O)OC[C@H]2O[C@@H](OC(=O)c2cc(O)c(O)c(O)c2)[C@@H]3OC(=O)c2cc(O)c(O)c3c2[C@H]1[C@H](O)C(=O)O3",
    "Activity, %": 48
  }
]

Turning now to a further record.
Specify measured Activity for O=C1O[C@H]2[C@@H]3OC(=O)c4cc(O)c(O)c(O)c4-c4c(cc(O)c(O)c4O)C(=O)OC[C@H]2O[C@@H](OC(=O)c2cc(O)c(O)c(O)c2)[C@@H]3OC(=O)c2cc(O)c(O)c3c2[C@@H]2C1=CC(=O)[C@](O)(O3)C2(O)O .
12

Data credit: ChEMBL document CHEMBL1151661
